SUBJECT OF TEST: NAD(+) hydrolase SARM1 (Homo sapiens, UniProt Q6SZW1)
Sequence (Q6SZW1 whole entry): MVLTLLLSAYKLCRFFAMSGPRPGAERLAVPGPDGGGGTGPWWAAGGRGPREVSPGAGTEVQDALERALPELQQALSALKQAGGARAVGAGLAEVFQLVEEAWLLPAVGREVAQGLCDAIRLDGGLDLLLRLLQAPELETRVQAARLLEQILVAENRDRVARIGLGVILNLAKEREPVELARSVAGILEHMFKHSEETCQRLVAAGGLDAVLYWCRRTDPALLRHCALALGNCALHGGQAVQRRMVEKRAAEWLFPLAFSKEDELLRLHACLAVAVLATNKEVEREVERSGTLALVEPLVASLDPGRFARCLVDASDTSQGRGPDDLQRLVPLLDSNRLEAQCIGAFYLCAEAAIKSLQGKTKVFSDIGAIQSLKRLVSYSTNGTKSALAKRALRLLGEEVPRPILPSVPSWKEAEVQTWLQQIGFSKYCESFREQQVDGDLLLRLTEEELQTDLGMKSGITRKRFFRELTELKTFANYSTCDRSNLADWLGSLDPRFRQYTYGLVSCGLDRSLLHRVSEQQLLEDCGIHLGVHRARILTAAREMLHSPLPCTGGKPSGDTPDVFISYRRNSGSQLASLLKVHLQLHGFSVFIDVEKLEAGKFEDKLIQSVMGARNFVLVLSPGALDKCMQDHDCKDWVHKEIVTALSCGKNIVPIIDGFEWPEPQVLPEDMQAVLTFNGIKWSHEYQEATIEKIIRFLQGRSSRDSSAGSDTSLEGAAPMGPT
EXPERIMENTAL ENDPOINT: IC50

// IC50 lookup, key: CC1CC2CC(C1)N2C(=O)Nc1ccc(Cl)c([C@@H]2CC[C@@H]2n2nccn2)c1 (relative stereo)
< 1 µM

// IC50 lookup, key: `C[C@@H]1C[C@@H]2C[C@H](C1)N2C(=O)Nc1ccc(Cl)c(N2CCCC2=O)c1`
5.5 µM

// IC50 lookup, key: C[C@@]1(O)CC[C@H](c2cc(NC(=O)N3C4CC3CC(C(F)(F)F)C4)ccc2Cl)C1 (stereo not given in full)
< 1 µM

// IC50 lookup, key: `Cc1ccc(NC(=O)CC2CCC2)cc1C1CCC1`
> 10 µM

// IC50 lookup, key: `Cc1ccc(NC(=O)N2C3CCCC2C3)cc1CC1CC1`
5.5 µM

---

SUBJECT OF TEST: NAD(+) hydrolase SARM1 (Homo sapiens, UniProt Q6SZW1)
TEST: Biochemical Assay of the Compounds
For each entry below, report its IC50 value.

// map CC1CC2CC(C1)N2C(=O)Nc1ccc(Cl)c([C@H]2CC[C@@H]2C(F)F)c1 (stereo partly drawn) [WO2025054369, Example 50] to recorded IC50 (system: NAD(+) hydrolase SARM1 (Homo sapiens, UniProt Q6SZW1))
< 1000 nM

// map Cc1nnc(C23CC(C)CC(C2)N3C(=O)Nc2ccc(Cl)c([C@H]3CC[C@H]3C#N)c2)o1 (stereo partly drawn) [WO2025054369, Example 4] to recorded IC50 (system: NAD(+) hydrolase SARM1 (Homo sapiens, UniProt Q6SZW1))
< 1000 nM

// map C[C@@H]1C[C@@H]2C[C@H](C1)N2C(=O)Nc1ccc(Cl)c(N2CCOC2=O)c1 [WO2025054369, Example 94] to recorded IC50 (system: NAD(+) hydrolase SARM1 (Homo sapiens, UniProt Q6SZW1))
5500 nM

// map O=C(Nc1ccc(Cl)c([C@H]2C[C@H](O)C2)c1)N1C2CC1CC(C(F)(F)F)C2 (stereo partly drawn) [WO2025054369, Example 42] to recorded IC50 (system: NAD(+) hydrolase SARM1 (Homo sapiens, UniProt Q6SZW1))
< 1000 nM

// map CC1CC2CC(C1)N2C(=O)Nc1ccc(Cl)c(C2CC(C)(O)C2)c1 (stereo not drawn) [WO2025054369, Example 38] to recorded IC50 (system: NAD(+) hydrolase SARM1 (Homo sapiens, UniProt Q6SZW1))
< 1000 nM

// map CC1CC2CC(C1)N2C(=O)Nc1ccc(Cl)c(N2CC[C@@H](O)C2)c1 (stereo partly drawn) [WO2025054369, Example 87] to recorded IC50 (system: NAD(+) hydrolase SARM1 (Homo sapiens, UniProt Q6SZW1))
< 1000 nM

// map Cc1nnc(C23CC(C)CC(C2)N3C(=O)Nc2ccc(Cl)c(C3CCC3)c2)o1 (stereo not drawn) [WO2025054369, Example 1] to recorded IC50 (system: NAD(+) hydrolase SARM1 (Homo sapiens, UniProt Q6SZW1))
< 1000 nM

// map CC1CC2CC(C1)N2C(=O)Nc1ccc(Cl)c([C@H]2CC[C@@]2(C)O)c1 (stereo partly drawn) [WO2025054369, Example 47] to recorded IC50 (system: NAD(+) hydrolase SARM1 (Homo sapiens, UniProt Q6SZW1))
> 10000 nM

// map N#C[C@H]1CC[C@H]1c1cc(NC(=O)N2C3CC2CC(C(F)(F)F)C3)ccc1Cl (stereo partly drawn) [WO2025054369, Example 32] to recorded IC50 (system: NAD(+) hydrolase SARM1 (Homo sapiens, UniProt Q6SZW1))
< 1000 nM

// map Cc1noc(C23CC(C)CC(C2)N3C(=O)Nc2ccc(Cl)c(C3CCCC3)c2)n1 (stereo not drawn) [WO2025054369, Example 82] to recorded IC50 (system: NAD(+) hydrolase SARM1 (Homo sapiens, UniProt Q6SZW1))
< 1000 nM

// map CC1CC2CC(C1)N2C(=O)Nc1ccc(Cl)c([C@@H]2CC[C@H]2n2cnnc2)c1 (relative stereo) [WO2025054369, Example 31] to recorded IC50 (system: NAD(+) hydrolase SARM1 (Homo sapiens, UniProt Q6SZW1))
< 1000 nM

// map CC1CC2CC(C1)N2C(=O)Nc1cc(F)c(Cl)c([C@@H]2CC[C@@H]2C#N)c1 (stereo partly drawn) [WO2025054369, Example 34] to recorded IC50 (system: NAD(+) hydrolase SARM1 (Homo sapiens, UniProt Q6SZW1))
< 1000 nM

// map Cc1ccc(NC(=O)N2C3CCCC2C3)cc1C1CC1 [WO2025054369, Example 22] to recorded IC50 (system: NAD(+) hydrolase SARM1 (Homo sapiens, UniProt Q6SZW1))
5500 nM

// map CC1CC2CC(C1)N2C(=O)Nc1ccc(Cl)c([C@@H]2CC[C@H]2C(F)F)c1 (stereo partly drawn) [WO2025054369, Example 51] to recorded IC50 (system: NAD(+) hydrolase SARM1 (Homo sapiens, UniProt Q6SZW1))
< 1000 nM

// map Cc1ccc(NC(=O)N2C3CC(C)CC2C3)cc1[C@H]1CC[C@H]1C#N (stereo partly drawn) [WO2025054369, Example 8] to recorded IC50 (system: NAD(+) hydrolase SARM1 (Homo sapiens, UniProt Q6SZW1))
< 1000 nM

// map CC1CC2CC(C1)N2C(=O)Nc1ccc(Cl)c(N2CCC2CF)c1 (stereo not drawn) [WO2025054369, Example 84] to recorded IC50 (system: NAD(+) hydrolase SARM1 (Homo sapiens, UniProt Q6SZW1))
< 1000 nM

// map CC1CC2CC(C1)N2C(=O)Nc1ccc(Cl)c(C2CCC2=O)c1 (stereo not drawn) [WO2025054369, Example 83] to recorded IC50 (system: NAD(+) hydrolase SARM1 (Homo sapiens, UniProt Q6SZW1))
< 1000 nM

// map Cc1nnc(C23CC(C)CC(C2)N3C(=O)Nc2ccc(Cl)c([C@@H]3CC[C@@H]3C#N)c2)o1 (stereo partly drawn) [WO2025054369, Example 3] to recorded IC50 (system: NAD(+) hydrolase SARM1 (Homo sapiens, UniProt Q6SZW1))
< 1000 nM

// map CC1CC2CC(C1)N2C(=O)Nc1ccc(Cl)c([C@@H]2CCC[C@@H]2C#N)c1 (stereo partly drawn) [WO2025054369, Example 60] to recorded IC50 (system: NAD(+) hydrolase SARM1 (Homo sapiens, UniProt Q6SZW1))
< 1000 nM

// map CC1CC2CC(C1)N2C(=O)Nc1ccc(Cl)c(C2CCC2(F)F)c1 (stereo not drawn) [WO2025054369, Example 76] to recorded IC50 (system: NAD(+) hydrolase SARM1 (Homo sapiens, UniProt Q6SZW1))
< 1000 nM

// map CC1CC2CC(C1)N2C(=O)Nc1ccc(Cl)c([C@H]2CCC[C@@H]2C#N)c1 (stereo partly drawn) [WO2025054369, Example 62] to recorded IC50 (system: NAD(+) hydrolase SARM1 (Homo sapiens, UniProt Q6SZW1))
< 1000 nM

// map Cc1nnc([C@@]23CCC[C@@H](C2)N3C(=O)Nc2ccc(Cl)c(C3CCC3)c2)o1 [WO2025054369, Example 59] to recorded IC50 (system: NAD(+) hydrolase SARM1 (Homo sapiens, UniProt Q6SZW1))
5500 nM

// map CC1CC2CC(C1)N2C(=O)Nc1ccc(Cl)c(N2CC(OCCO)C2)c1 (stereo not drawn) [WO2025054369, Example 85] to recorded IC50 (system: NAD(+) hydrolase SARM1 (Homo sapiens, UniProt Q6SZW1))
5500 nM
